Reference source for all entries: patent US11142520B2

Reported values: pIC50 for LDHB (Homo sapiens (Human), UniProt P07195), one per item.
pIC50: −log10 of the molar value.

- molecule: "CC(C)COC(=O)OC1=C(Sc2ccc(F)cc2Cl)C(=O)NC(c2ccc(N3CCOCC3)cc2)(c2ccsc2)C1 (centres unmarked) [Example 32]"
  tested-on: "LDHB (Homo sapiens (Human), UniProt P07195)"
  pIC50: "< 4.00"
- molecule: "O=C1CC(c2ccsc2)(c2cccc(OCC3CCCC3)n2)NC(=O)C1Sc1ccc(Cl)cc1Cl (centres unmarked) [Example 1]"
  tested-on: "LDHB (Homo sapiens (Human), UniProt P07195)"
  pIC50: "< 4.00"
- molecule: "CCOc1cccc(C2(c3ccsc3)CC(=O)C(Sc3ccc(F)cc3Cl)C(=O)N2)n1 (centres unmarked) [Example 4]"
  tested-on: "LDHB (Homo sapiens (Human), UniProt P07195)"
  pIC50: "< 4.00"
- molecule: "COC(=O)OC1=C(Sc2cccc(Cl)c2Cl)C(=O)NC(c2ccsc2)(c2cccc(OCC3CCCC3)n2)C1 (centres unmarked) [Example 12]"
  tested-on: "LDHB (Homo sapiens (Human), UniProt P07195)"
  pIC50: "< 4.00"
- molecule: "CCOC(=O)OC1=C(Sc2ccc(F)cc2Cl)C(=O)NC(c2ccsc2)(c2cccc(OCC3CCCC3)n2)C1 (centres unmarked) [Example 11]"
  tested-on: "LDHB (Homo sapiens (Human), UniProt P07195)"
  pIC50: "< 4.00"
- molecule: "CCOC(=O)OC1=C(Sc2cccc(Cl)c2Cl)C(=O)NC(c2ccc(N3CCOCC3)cc2)(c2ccsc2)C1 (centres unmarked) [Example 15]"
  tested-on: "LDHB (Homo sapiens (Human), UniProt P07195)"
  pIC50: "< 4.00"
- molecule: "O=C1CC(c2ccc(N3CCOCC3)cc2)(c2ccsc2)NC(=O)C1Sc1ccc(F)cc1Cl (centres unmarked) [Example 8]"
  tested-on: "LDHB (Homo sapiens (Human), UniProt P07195)"
  pIC50: "6.30 to 7.00"
- molecule: "O=C1CC(c2ccsc2)(c2ccccn2)OC(=O)C1Sc1ccccc1Cl (centres unmarked) [Example 20]"
  tested-on: "LDHB (Homo sapiens (Human), UniProt P07195)"
  pIC50: "5.00 to 6.30"
